Listed compounds paired with reported melting point
property measured: melting point

- compound: "COc1c([N+](=O)[O-])cc(C)c(C)c1[N+](=O)[O-]"
  property measured: "melting point"
  observed result: "67.3 to 67.6 °C"
- compound: "CCCCCCCCCCCCn1c2cc(Cl)ccc2c2ccc(Cl)cc21"
  property measured: "melting point"
  observed result: "70 to 71 °C"
- compound: "CC12CCC3C(CCC4CC(=O)CCC43C)C1CC=C2c1cccnc1 (stereo unspecified)"
  property measured: "melting point"
  observed result: "190 to 192 °C"
- compound: "CCOCc1nc2c(N)nc(C)c(C)c2n1C1(OC)CCCCC1"
  property measured: "melting point"
  observed result: "172 to 173 °C"
- compound: "CC(NC(=O)C(NC(=O)OCC1c2ccccc2-c2ccccc21)C(Cc1ccccc1)C(=O)O)C(=O)O (stereo unspecified)"
  property measured: "melting point"
  observed result: "114 to 116 °C"
- compound: "N#CCCCCC(N)=O"
  property measured: "melting point"
  observed result: "63 to 65 °C"
- compound: "CC(=O)Nc1ccc(CC2CCN(CCS(=O)c3ccc4[nH]c(=O)oc4c3)CC2)cc1 (stereo unspecified)"
  property measured: "melting point"
  observed result: "104 to 105 °C"
- compound: "CN1CCN(C2=Nc3cc(Cl)cc4ccn(c34)-c3ccccc32)CC1"
  property measured: "melting point"
  observed result: "184 to 186 °C"
- compound: "CC(=O)Oc1cc(C)cc(C(=O)N[C@@H](Cc2ccccc2)[C@H](OC(C)=O)C(=O)O)c1C"
  property measured: "melting point"
  observed result: "185 to 186 °C"
- compound: "CC(C)(NC(=O)CCSC(=O)c1ccccc1)C(=O)O"
  property measured: "melting point"
  observed result: "142 to 143 °C"
- compound: "O=C1c2cccc(-n3c(=O)[nH]c4cnccc4c3=O)c2C2CC3(CCN12)OCCO3 (stereo unspecified)"
  property measured: "melting point"
  observed result: "204 °C"
- compound: "COc1ccc(C(=O)Nc2ccc3ccc(C=CN(C)C)nc3n2)cc1"
  property measured: "melting point"
  observed result: "240 °C"
- compound: "CC(C)(C)OC(=O)NNc1ccc2ccccc2n1"
  property measured: "melting point"
  observed result: "148 to 150 °C"
- compound: "CNCc1nc(C(=O)NC)c2n1-c1ccc(Cl)cc1C(c1ccccc1Cl)=NC2"
  property measured: "melting point"
  observed result: "270 to 273 °C"
- compound: "CN1CCN(C2=Nc3cc(Br)ccc3-n3ccc4cc(Br)cc2c43)CC1"
  property measured: "melting point"
  observed result: "158 to 159 °C"
- compound: "O=C(O)CCCCCOc1ccccc1C(=O)c1ccccc1O"
  property measured: "melting point"
  observed result: "89 to 91 °C"
- compound: "CCCC(=O)C1=C(O)CC(c2ccc(OC)c(NC(C)=O)c2)CC1=O (stereo unspecified)"
  property measured: "melting point"
  observed result: "102 to 106 °C"
- compound: "CSc1cccc(COCCCn2ccnc2)c1NC(=O)CC1c2ccccc2Oc2ccccc21"
  property measured: "melting point"
  observed result: "176 to 177 °C"
- compound: "CO/N=C(\\C)c1cccc(Nc2c3ccccc3nc3occc23)c1"
  property measured: "melting point"
  observed result: "137 to 138 °C"
- compound: "Nc1c(N=O)c(=O)n(CCC2CCCCC2)c(=O)n1CCC1CCCCC1"
  property measured: "melting point"
  observed result: "231 to 233 °C"
- compound: "N#Cc1oc2c(sc3ccccc32)c1O"
  property measured: "melting point"
  observed result: "174 to 175 °C"

###

property measured: melting point

- compound: "Cc1cc(C)c2cccc(OCc3c(Cl)ccc(S(=O)(=O)N4CC(O)CC4C(=O)O)c3Cl)c2n1 (stereo not given)"
  observed result: "> 260 °C"
- compound: "Oc1cc(Br)ccc1/C=N/c1ccccc1"
  observed result: "129 °C"
- compound: "CSc1sc(C(N)=O)c2c1-c1[nH]c(-c3ccccc3)nc1CC2"
  observed result: "206 to 207 °C"
- compound: "Cc1cc(C(=O)Nc2ccc(SC(F)(F)F)c(Cl)c2)c(O)c(C23CC4CC(CC(C4)C2)C3)c1"
  observed result: "205 to 206 °C"
- compound: "CC(C(=O)CCl)c1cccc(C(=O)c2ccccc2)c1 (stereo not given)"
  observed result: "60 °C"
- compound: "CCOC(=O)c1ncn2c3cccc(I)c3c(=O)n(C)c12"
  observed result: "266 to 267 °C"
- compound: "CSc1cc(C)nc(SC)c1NC(=O)CCCCCCSc1nc2ccccc2[nH]1"
  observed result: "189 to 192 °C"
- compound: "Cc1nn(CCC(C)O)c(-c2ccc(F)cc2)c1-c1ccc2c(c1)NC(=O)CO2 (stereo not given)"
  observed result: "158 to 159 °C"
- compound: "CCNc1ncccc1-c1cscc1-c1cccnc1F"
  observed result: "127 to 129 °C"
- compound: "Cc1ccc2c(c1)C1CN(CCCC(=O)c3ccc(F)cc3)CCC1N2 (stereo not given)"
  observed result: "154 to 158 °C"

###

property measured: melting point

- compound: "COc1ccc2c(c1)C(C(=O)O)=Cc1ccccc1O2"
  property measured: "melting point"
  observed result: "150 °C"
- compound: "CCC(Sc1cc2ccccc2n1C)(C(=O)OC)c1ccccc1 (stereo unspecified)"
  property measured: "melting point"
  observed result: "90 to 91 °C"
- compound: "COc1c(C)c2c(c(N)c1C/C=C(\\C)CCC(=O)O)C(=O)OC2"
  property measured: "melting point"
  observed result: "130 to 131 °C"
- compound: "COc1cc2c(cc1OC)CN(CCCCc1ccc(NC(=O)c3cnc4cc(C)c(C)cc4n3)cc1)CC2"
  property measured: "melting point"
  observed result: "100 to 105 °C"
- compound: "CC(C)(C)C(=O)OCN1C(=O)CC2(C1=O)C(=O)N(Cc1ccc(Cl)c(Cl)c1)c1ccccc12 (stereo unspecified)"
  property measured: "melting point"
  observed result: "134 to 135 °C"
- compound: "CSc1nc2c(F)cccc2s1"
  property measured: "melting point"
  observed result: "30 °C"
- compound: "CCNc1nnc(C(C)(C)C)c(=O)n1N"
  property measured: "melting point"
  observed result: "177 °C"
- compound: "C[C@H]1CCCN(C(=O)[C@@H]2Cc3ccccc3N2c2ccc(=O)n(C)n2)C1"
  property measured: "melting point"
  observed result: "231 to 233 °C"
- compound: "Nc1nc(-c2ccncc2)nc2c1c(Br)nn2C1CCCC1"
  property measured: "melting point"
  observed result: "189 to 191 °C"
- compound: "COc1ccc(NS(=O)(=O)C(F)(F)F)cc1CC1C(=O)c2cc(OCc3nc4cc(F)c(F)cc4s3)ccc2OC1(C)C (stereo unspecified)"
  property measured: "melting point"
  observed result: "198 to 200 °C"
- compound: "CC(C)(CN)c1ccc(-n2c(-c3cc(-c4cnc5ccccc5c4)ccn3)c[nH]c2=O)cc1"
  property measured: "melting point"
  observed result: "244 to 247 °C"
- compound: "COC(=O)c1nc(N2CCCC2)ccc1O"
  property measured: "melting point"
  observed result: "82.5 to 84 °C"
- compound: "Cc1ccc(-c2oncc2CCC(=O)O)cc1"
  property measured: "melting point"
  observed result: "121 to 122 °C"
- compound: "COC(=O)c1nn(-c2ccc(OCc3ccccc3)cc2F)cc(OC)c1=O"
  property measured: "melting point"
  observed result: "143 to 144 °C"
- compound: "CC(C)[C@H](NC(=O)OCc1ccccn1)C(=O)N[C@@H](Cc1ccccc1)[C@@H](O)C[C@H](Cc1ccccc1)NC(=O)OCc1cncs1"
  property measured: "melting point"
  observed result: "176 to 177 °C"
- compound: "CCN1CC2OC(c3ccccc3)(C1)c1ccccc12 (stereo unspecified)"
  property measured: "melting point"
  observed result: "132 to 134 °C"
- compound: "CC(Oc1cccc(Cl)c1)C(=O)NCCO[N+](=O)[O-] (stereo unspecified)"
  property measured: "melting point"
  observed result: "67 to 69 °C"
- compound: "O=C(c1ccc(-c2ccccc2)cc1)C1(n2cncn2)CC1"
  property measured: "melting point"
  observed result: "154 to 155 °C"
- compound: "CCCCC(=O)NC(C#N)C(=O)OCC (stereo unspecified)"
  property measured: "melting point"
  observed result: "88 °C"
- compound: "O=C(CCCN1CCCCC1)c1ccc2c(c1)Cc1cc(C(=O)CCCN3CCCCC3)ccc1-2"
  property measured: "melting point"
  observed result: "157 to 159 °C"
- compound: "Cc1noc(NS(=O)(=O)c2ccccc2-c2ccc(-c3ncco3)cc2CC#N)c1C"
  property measured: "melting point"
  observed result: "103 to 110 °C"
- compound: "CCc1cc(CC)c2ccc(N)nc2n1"
  property measured: "melting point"
  observed result: "187 to 189 °C"
- compound: "COc1nc(C)nc(NC(=O)NS(=O)(=O)c2ccccc2OC(F)(F)C(F)(F)F)n1"
  property measured: "melting point"
  observed result: "157 to 159 °C"
- compound: "C=CC(=O)Oc1ccc(Cl)c2c(N(C)C)ncnc12"
  property measured: "melting point"
  observed result: "95 to 100 °C"
- compound: "NC(=O)c1c[nH]c2ccc([N+](=O)[O-])cc12"
  property measured: "melting point"
  observed result: "284 to 288 °C"
- compound: "N#CCC1CCN(c2ccc(N3C[C@@H](Cn4cc(C#N)nn4)OC3=O)cc2F)CC1"
  property measured: "melting point"
  observed result: "200 to 202 °C"
- compound: "CN1CCC(N(CCN2CCCC2)S(=O)(=O)c2ccc(Nc3nccc(Nc4ccc(F)cc4)n3)cc2)CC1"
  property measured: "melting point"
  observed result: "250 °C"
- compound: "CCOC(=O)c1c(C(F)(F)F)nc2ccccc2c1O"
  property measured: "melting point"
  observed result: "192 °C"
- compound: "CCCN1Cc2c(ncnc2C2C(=O)Nc3ccc(C#N)cc32)N1 (stereo unspecified)"
  property measured: "melting point"
  observed result: "> 300 °C"
- compound: "COc1ccc(C(=O)[C@H](C)NC(=O)OCc2ccccc2)cc1"
  property measured: "melting point"
  observed result: "46 to 48 °C"
- compound: "CN(C)CCNC1=CC(=O)c2nc(-c3ccc4ccccc4c3)sc2C1=O"
  property measured: "melting point"
  observed result: "167 to 168 °C"
- compound: "CCSc1c[nH]nc1C1=CCCN(C)C1"
  property measured: "melting point"
  observed result: "95 to 97 °C"
- compound: "COc1cccc2c(=O)cc(N3CCOCC3)oc12"
  property measured: "melting point"
  observed result: "165 °C"
- compound: "COc1nc(Nc2cc(C)ccc2N)nc(OC)n1"
  property measured: "melting point"
  observed result: "180 to 183 °C"
- compound: "CCOC(=O)Cn1c(=O)[nH]c(=O)c2cc(Cl)c(Cl)cc21"
  property measured: "melting point"
  observed result: "> 280 °C"
- compound: "Cc1cc(N)ccc1Oc1ccc(Oc2ccc(N)cc2C)cc1"
  property measured: "melting point"
  observed result: "195 to 196 °C"
- compound: "COc1ccc(C(=O)Nc2ccccc2CC(C)C2CCCCN2C)cc1 (stereo unspecified)"
  property measured: "melting point"
  observed result: "126 to 136 °C"
- compound: "CCOC(=O)c1cn(N)c2cc(-n3cccc3)c(F)cc2c1=O"
  property measured: "melting point"
  observed result: "276 to 279 °C"
- compound: "CNC(=O)Nc1ccc2c(c1Cl)C(c1ccccc1F)=NCC(=O)N2C"
  property measured: "melting point"
  observed result: "145 to 160 °C"
- compound: "COc1ccc2c(c1)C(c1ccc(OCCN(C)C)cc1)c1c-2ccc2ccccc12 (stereo unspecified)"
  property measured: "melting point"
  observed result: "159 to 160 °C"
- compound: "CCCCOc1c(C(C)O)n(C)c(=O)c2cc(Cl)c(Cl)cc12 (stereo unspecified)"
  property measured: "melting point"
  observed result: "123 to 124 °C"

Just for reference, a melting point compilation (Tetko et al.; mined from patent text by program, amines drawn as free bases though some values may be those of a salt) is where these values come from.
